System: MS2 coat protein
Experiment: apparent KD of MS2 coat protein, switch OFF state (with FMN for OFF switches, without FMN for ON switches); designed switch direction (-1 OFF switch, 1 ON switch): -1; higher = weaker reporter binding
Conditions: FMN input: 0 or 200 uM; Eterna round: R93 (includes R88 designs)
Listed below: apparent KD of MS2 coat protein values for each entry.
recorded-endpoint: apparent KD of MS2 coat protein

[[record]]
biopolymer_sequence = "AACAGACAUGAGGAUCACCCAUGUGAGGAUAUCCCAAUCGAUAGAACUAGAAUGACAAGGAGAAGGCACAGCAA [JR_Exc001_Sub005]"
subject_of_test = "MS2 coat protein"
recorded_endpoint = "apparent KD of MS2 coat protein"
result = "70.1 nM"

[[record]]
biopolymer_sequence = "AGGAAACAUGAGGAUCACCCAUGUAAGGAUAUGAACGAAAUAAAAUAAAAAUAAAAGUUCAGAAGGUACAAAAA [Mat - Exclusion 1 - Eli mod - D8]"
subject_of_test = "MS2 coat protein"
recorded_endpoint = "apparent KD of MS2 coat protein"
result = "39.3 nM"

[[record]]
biopolymer_sequence = "AGGUUGUCAGGAUAUGCGUGAAGAAUAAAACAAAUAACAACGCAGAAGGGACAUGAGGAUCACCCAUGUUAAGA [May 47]"
subject_of_test = "MS2 coat protein"
recorded_endpoint = "apparent KD of MS2 coat protein"
result = "48.3 nM"

[[record]]
biopolymer_sequence = "GGAACACAUGAGGAUCACCCAUGUCAGGAUAUGUAGAUAAAAAGAAAAUAAAAUAAAAGCAGAAGGGACAAAAG [May 4]"
subject_of_test = "MS2 coat protein"
recorded_endpoint = "apparent KD of MS2 coat protein"
result = "44.5 nM"


====

Test system: K4 kissing-loop RNA reporter
Assay: apparent KD of K4 kissing-loop reporter; higher = weaker reporter binding
Conditions: Eterna round: R107; input ligand: none
Listed below: apparent KD of K4 kissing-loop reporter values for each entry.
recorded-endpoint: apparent KD of K4 kissing-loop reporter (nM)

[[record]]
biopolymer_sequence = "AAAGGCAAAGCCCGAGUGAUGUUCGACGAUACCAGCCUCGAUAGAGGCCCUUGGCAGCGUAAAUGAUCAUGAAGCCAAGGAAUAA [whbob_Ex_Theo_A_th67]"
measured_number = 352

[[record]]
biopolymer_sequence = "GGAUAGGAUAGAGGAUAUGGAGAACACAAAAGUGACUUGUUGUGUUUAUCCAUAGGGAGUGAUGUUCCAGAAGGCUGUCCUAUCG [MatMod 24 - Jieux - Exclusion - FMN B]"
measured_number = 201

[[record]]
biopolymer_sequence = "AAUUCAGUGAUGUUGGAAGGCAGGCGGGAUACCAGCGGAGAAUAACGCCCUUGGCAGCCCAAAUAUCCCAAAUAGAUAAUAGUUC [Same State - Theophylline A (Freestyle 2)]"
measured_number = 481


====

Listed below: apparent KD of K4 kissing-loop reporter values for each entry.
System: K4 kissing-loop RNA reporter;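 also: bound reporter read as fluorescence of individual clusters on recovered sequencing chips by microscopy, with normalized cluster intensities fitted with a binding model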
Assay: apparent KD of K4 kissing-loop reporter; higher = weaker reporter binding
Settings: Eterna round: R107; input ligand: none
recorded-endpoint: apparent KD of K4 kissing-loop reporter

[[record]]
biopolymer_sequence = "GUUAAUAGUAGUGAUGUUACAAUAGUUUGUGAGGAUAUCCCGAAAGGGAGAAGGCACAAACAAAUAGAUUCUCACAAAUAUUUAC [FMN A exclusion]"
recorded_endpoint = "apparent KD of K4 kissing-loop reporter"
result = "243 nM"

[[record]]
biopolymer_sequence = "AAACUCAGUGAUGUUGAGUGGGAGCGGGAUACCAGAUCGCCCAUCAUCCCUUGGCAGCCCGAGCGUCAGAAUACAUUUCAUUUGC [theeternabot_sameState_KL_Theo_A_6]"
recorded_endpoint = "apparent KD of K4 kissing-loop reporter"
result = "349 nM"

[[record]]
biopolymer_sequence = "UUGAGACGUCAAGGAUAUUCCGCGGAAGGGCGAGCGACCCAAGUGUGAGUGAUGUUCAGCAAGCCGGAAGAAGGUGAAUUUCACC [theeternabot_sameState_KL_FMN_B_26]"
recorded_endpoint = "apparent KD of K4 kissing-loop reporter"
result = "958 nM"

[[record]]
biopolymer_sequence = "UGGUUUAACUGAAGGAGCGGCAAUUGAUAAGUAGAUAUAGUGAUGUUAUAUAAGAUAGAGAGCCAGGUAGGUCGCAGAGGUAUUU [ExArgB.P]"
recorded_endpoint = "apparent KD of K4 kissing-loop reporter"
result = "212 nM"

[[record]]
biopolymer_sequence = "GAGUCCUUUGAAGGAUAUAGACGUCCCGAUCACUCAGUUGGCGAGCGAGUGAUGUUCGUUCCUAUACUAGAAGGUCAAAGCCUCC [theeternabot_sameState_KL_FMN_B_32]"
recorded_endpoint = "apparent KD of K4 kissing-loop reporter"
result = "211 nM"

[[record]]
biopolymer_sequence = "UGAUACCAGACGGCCGCCACUCCUGCAGUCAAAAGACUGCUAAAGGAAAUCGUCCAGUGAUGUUGGAGGACCGGGUCUGGUAUCU [TrypBX 16 #SwitchBubble #Palindromic #StaticStem]"
recorded_endpoint = "apparent KD of K4 kissing-loop reporter"
result = "1380 nM"

[[record]]
biopolymer_sequence = "UUAAUUAAGACGGCCGCCACUGAAUUAGAGUGAUGUUCUAAAAUUACUAAAUUAAAUUUAUUCAACAGGACCGGGUCAAUUAUUA [JR_SSTryptoB_Sub009]"
recorded_endpoint = "apparent KD of K4 kissing-loop reporter"
result = "560 nM"

[[record]]
biopolymer_sequence = "AUUUUUUUAUCAGGAUAUUAGUGAUGGUUGUUUUUGUUAGUGAUGUUGAUAUUUGUUUUAUGUAUUUAAGAAGGGAUUGAGAUGU [zbbzmullin]"
recorded_endpoint = "apparent KD of K4 kissing-loop reporter"
result = "42.9 nM"

[[record]]
biopolymer_sequence = "CGCUUGGGUGCGGCCGCCACUAGAGCGUGACACGGGUCCCAAAAGGGUGCAGUGAUGUUGCAGCCUAGGACCGGGCACCUCUGGC [Beveesbe]"
recorded_endpoint = "apparent KD of K4 kissing-loop reporter"
result = "90.4 nM"

[[record]]
biopolymer_sequence = "UUAUAUAUAUCAGAUACCAGCAUAAUGGAAACAAAUUAUGUUAUGAGUGAUGUUCAUGUAUGCCCUUGGCAGCUGGUAUGGGUUU [KL-XTheo-B19]"
recorded_endpoint = "apparent KD of K4 kissing-loop reporter"
result = "433 nM"

[[record]]
biopolymer_sequence = "UGUCAUUGGUCUGAUACCAGGUUGAUCGGUAAACGAUCUCCUGGAGUGAUGUUCCAAAAUAUCCCUUGGCAGCAGACCGAUGACU [TheoBS 6 #SwitchBubble #StaticStem]"
recorded_endpoint = "apparent KD of K4 kissing-loop reporter"
result = "545 nM"

[[record]]
biopolymer_sequence = "ACAGUCGGCUGUGAUACCAGUCGUAUUACAACAUGUUGCAGUGAUGUUGCGAGAUAGGAUGACCCUUGGCAGCACUCAGUACGAU [Same State Theophylline B GF9]"
recorded_endpoint = "apparent KD of K4 kissing-loop reporter"
result = "173 nM"

